Assay: Compound was tested for the maximal velocity of metabolic intermediary complex formation
Assay type: ADME
Give Vmax for every item shown.
Respond numerically, and do not add a unit to the figure.

Documented Vmax of `CCCC[C@@H](N)Cc1ccccc1.Cl` : 5.7

Documented Vmax of `CCC[C@@H](N)Cc1ccccc1.Cl` : 5.1

Documented Vmax of `CCC[C@H](N)Cc1ccccc1.Cl` : 9.1

Documented Vmax of `CC[C@@H](N)Cc1ccccc1.Cl` : 3.2

Documented Vmax of CCC(N)Cc1ccccc1.Cl (stereo not drawn) : 4

Documented Vmax of `CCCC[C@H](N)Cc1ccccc1.Cl` : 10.5

====

Test: Apparent Michaelis-Menten constant (Km (app)) for the metabolic intermediary complex formation was reported.
Format: ADME
Conditions: read-out: Km app
Endpoint: Km

Documented Km of `CCCC[C@H](N)Cc1ccccc1.Cl` : 21 µM

Documented Km of `CC[C@@H](N)Cc1ccccc1.Cl` : 23 µM

Documented Km of `C[C@H](N)Cc1ccccc1.Cl` : ~280 µM

Documented Km of `C[C@@H](N)Cc1ccccc1.Cl` : ~270 µM

Documented Km of `CCC[C@@H](N)Cc1ccccc1.Cl` : 28 µM

Documented Km of `CCC[C@H](N)Cc1ccccc1.Cl` : 32 µM

Documented Km of CCC(N)Cc1ccccc1.Cl (stereo not drawn) : 30 µM

Documented Km of `CCCC[C@@H](N)Cc1ccccc1.Cl` : 16 µM
